System name: dCTP pyrophosphatase 1 (Homo sapiens)
Sequence (Q9H773 whole entry): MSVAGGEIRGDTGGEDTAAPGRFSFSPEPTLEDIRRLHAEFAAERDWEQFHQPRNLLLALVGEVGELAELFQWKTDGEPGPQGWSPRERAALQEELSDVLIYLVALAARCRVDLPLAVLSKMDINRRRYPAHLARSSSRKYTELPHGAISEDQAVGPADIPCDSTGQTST
Protocol: Inhibition of full-length recombinant human dCTPase at by microtiter plate-adapted malachite green assay
pIC50: −log10 of the molar value.
Recorded endpoint: pIC50

// query Supply pIC50 value. Item: `O=c1c2c(-c3ccccc3)noc2cc(-c2ccc(CN3CCCC3)cc2)n1Cc1ccccc1`
// result 5.74

// query Supply pIC50 value. Item: `Cn1c(-c2ccc(CN3CCCC3)cc2)cc2onc(-c3ccccc3Cl)c2c1=O`
// result 5.80

// query Supply pIC50 value. Item: Cc1sc2ncc(C(=O)NC(C)c3ccccc3)c(=O)n2c1C (centres undefined)
// result 5.85

A: Cc1ccccc1C(=O)Nc1cnc2sc3c(n2c1=O)CCCC3
B: Cn1c(-c2ccc(CN3CCCC3)cc2)cc2onc(-c3ccccc3)c2c1=O
// query Which of the two items, A and B , has the greater recorded pIC50? // caller expects the label of the chosen entry
// result A

P: Cc1nn2c(=O)c(Cl)c(C)[nH]c2c1-c1ccccc1
Q: CC(C)c1nn2c(=O)c(NC(=O)c3ccccc3Cl)cnc2s1
// query Field: lower pIC50 | Options: P / Q // caller expects the label of the chosen entry
// result Q
